- Tested on: SEM cells
- Assay: cell viability relative to DMSO control; higher = less cytotoxic
- Protocol Conditions: RPMI 5 mM glucose + 10% FBS; 48 h; 15.4 µM
Note to self: cell viability under 90% means label 1, ties and anything higher get label 0.

{"Compound": "CN1\\C=N/C2=CC=C(NC3=CC(=CC=C3C)NC(=O)C4=CC(=CC=C4)C(C)(C)C#N)C=C2C1=O", "Class Assignment": "label 1"}
{"Compound": "C[C@@H]1CCO[C@H]2CN\\3/C=C(/C(=O)NCC4=C(F)C=C(F)C=C4)C(=O)\\C(=C3C(=O)N12)O", "Class Assignment": "label 1"}
{"Compound": "CC#CCn1c(N2CCC[C@@H](N)C2)nc2c1c(=O)n(Cc1nc(C)c3ccccc3n1)c(=O)n2C", "Class Assignment": "label 0"}
{"Compound": "Cc1ccccc1C(=O)Nc1ccc(C(=O)N2CCCC(O)c3cc(Cl)ccc32)c(C)c1 (stereo not given)", "Class Assignment": "label 0"}
{"Compound": "Nc1c2c(nc3ccccc13)CCCC2", "Class Assignment": "label 0"}
{"Compound": "COc1c(C)c2c(c(O)c1C/C=C(\\C)CCC(=O)O)C(=O)OC2", "Class Assignment": "label 1"}
{"Compound": "CC(C)OC(=O)[C@H](C)N[P@](=O)(OC[C@H]1O[C@@H](N2\\C=C/C(=O)NC2=O)[C@](C)(F)[C@@H]1O)OC3=CC=CC=C3", "Class Assignment": "label 1"}
{"Compound": "CN1CC(=O)N2[C@H](c3ccc4c(c3)OCO4)c3[nH]c4ccccc4c3C[C@@H]2C1=O", "Class Assignment": "label 1"}
